Target: Mouse ACVR2A (mouse, UniProt P27038 20-135, limits assumed); further: test concentration or dose not given here
Sequence (P27038 20-135 limits assumed): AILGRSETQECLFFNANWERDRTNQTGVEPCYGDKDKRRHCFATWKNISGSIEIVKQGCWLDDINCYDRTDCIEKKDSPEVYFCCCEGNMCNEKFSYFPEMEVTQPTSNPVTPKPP
Experiment: ELISA
Recorded optical density, one value per entry.
Express it in OD; write the number only.

Problem: Could you tell me which optical density is on file for 370_B08 (antibody, V domains shown, VH/VL only) VH: EVQLLESGGGLVQPGGSLRLSCAASGFTFSDYSMNWVRQAPGKGLEWVANINYNGGYTGYADSVKGRFTISRDNSKNTLYLQMNSLRAEDTAVYYCARGATWHDTHLDYWGQGTLVTVSS VL: DIQMTQSPSSLSASVGDRVTITCRASQSILSYLNWYQQKPGKAPKLLIYAASSLQSGVPSRFSGSGSGTDFTLTISSLQPEDFATYYCQQSYDSPLTFGGGTKVEIK ?
Result: 3.25

Problem: // returns reported optical density for input 372_H11 (antibody, V domains shown, VH/VL only) VH: EVQLLESGGGLVQPGGSLRLSCAASGFTFSSYGMHWVRQAPGKGLEWVAGINYNGGYTSYADSVKGRFTISRDNSKNTLYLQMNSLRAEDTAVYYCARGATWHDTHLDYWGQGTLVTVSS VL: DIQMTQSPSSLSASVGDRVTITCRASQSILSYVNWYQQKPGKAPKLLIYAATSRASGVPSRFSGSGSGTDFTLTISSLQPEDFATYYCQQSYENPLTFGGGTKVEIK
Result: 2.86

Problem: // optical density lookup, key: 369_E05 (antibody, V domains shown, VH/VL only) VH: EVQLLESGGGLVQPGGSLRLSCAASGFTFSDYGMNWVRQAPGKGLEWVANINYNGGYKSYADSVKGRFTISRDNSKNTLYLQMNSLRAEDTAVYYCARGATWHDTHLDYWGQGTLVTVSS VL: DIQMTQSPSSLSASVGDRVTITCRASQSILTYLNWYQQKPGKAPKLLIYAATSLASGVPSRFSGSGSGTDFTLTISSLQPEDFATYYCQQSYETPLTFGGGTKVEIK
Result: 1.64

Problem: Fill blank: measured optical density of the binder 376_H11 (antibody, V domains shown, VH/VL only) VH: EVQLLESGGGLVQPGGSLRLSCAASGFTFDSYSMNWVRQAPGKGLEWVSNINYNGGYTGYADSVKGRFTISRDNSKNTLYLQMNSLRAEDTAVYYCARGANWHDTALDYWGQGTLVTVSS VL: DIQMTQSPSSLSASVGDRVTITCRASQSISRYLNWYQQKPGKAPKLLIYAVTSLASGVPSRFSGSGSGTDFTLTISSLQPEDFATYYCQQSYESPLTFGGGTKVEIK is ____.
Result: 3.31

Problem: Please look up its optical density: 365_B07 (antibody, V domains shown, VH/VL only) VH: EVQLLESGGGLVQPGGSLRLSCAASGFTFSSYGMHWVRQAPGKGLEWVASINYNSGYTSYADSVKGRFTISRDNSKNTLYLQMNSLRAEDTAVYYCARSANWHDTALDYWGQGTLVTVSS VL: DIQMTQSPSSLSASVGDRVTITCRASQSILTYLNWYQQKPGKAPKLLIYAATSRASGVPSRFSGSGSGTDFTLTISSLQPEDFATYYCQQSYENPLTFGGGTKVEIK
Result: 2.21
